pIC50: −log10 of the molar value.
Entries with reported pIC50 on Ribosomal protein S6 kinase alpha-5 (Homo sapiens, UniProt O75582)
Sequence (O75582 whole entry): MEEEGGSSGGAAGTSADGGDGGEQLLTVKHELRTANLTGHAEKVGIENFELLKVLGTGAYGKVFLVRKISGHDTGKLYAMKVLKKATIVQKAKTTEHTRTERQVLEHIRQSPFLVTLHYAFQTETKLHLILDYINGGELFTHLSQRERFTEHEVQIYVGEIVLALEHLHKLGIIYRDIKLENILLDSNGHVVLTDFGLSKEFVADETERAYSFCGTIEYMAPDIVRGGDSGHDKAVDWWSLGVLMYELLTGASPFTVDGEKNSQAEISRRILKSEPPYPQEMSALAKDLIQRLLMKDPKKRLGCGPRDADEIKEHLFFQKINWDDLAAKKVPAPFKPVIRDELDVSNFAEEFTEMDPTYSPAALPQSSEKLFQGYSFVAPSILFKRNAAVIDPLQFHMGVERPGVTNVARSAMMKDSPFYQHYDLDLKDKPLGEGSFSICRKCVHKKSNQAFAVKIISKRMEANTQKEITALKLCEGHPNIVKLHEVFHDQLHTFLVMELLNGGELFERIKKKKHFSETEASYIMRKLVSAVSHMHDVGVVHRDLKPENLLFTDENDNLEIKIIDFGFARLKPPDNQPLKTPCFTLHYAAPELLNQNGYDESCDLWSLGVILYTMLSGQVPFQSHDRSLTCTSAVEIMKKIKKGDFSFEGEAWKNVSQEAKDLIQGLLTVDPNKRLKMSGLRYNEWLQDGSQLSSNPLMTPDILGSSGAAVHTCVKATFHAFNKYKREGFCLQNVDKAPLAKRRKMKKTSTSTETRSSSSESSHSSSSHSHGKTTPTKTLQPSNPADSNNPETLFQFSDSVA
TEST READOUT: pIC50

NCc1cccc(-n2c(-c3nonc3N)nc3cnccc32)c1 8.60
NCc1ccc(-n2c(-c3nonc3N)nc3cnccc32)cc1 8.40
CCn1c(-c2nonc2N)nc2cncc(CN3CCC(N)CC3)c21 8.52
CCn1c(-c2nonc2N)nc2cncc(CNC3CCNCC3)c21 9.30
Nc1nonc1-c1nc2cnccc2n1C1CCCCC1 8.52

(a) CCn1c(-c2nonc2N)nc2cnccc21
(b) CCn1c(-c2nonc2N)nc2c(OC)nccc21
Exercise: compare a and b ; which one has the greater pIC50? # reply format: chosen label
a

* * *

TARGET: Cyclin-dependent kinase 2 (Homo sapiens, UniProt P24941)
TEST READOUT: pIC50
Answer as the number alone; pIC50 is minus log10 of concentration in mol/L.

Determine reported pIC50 for CCn1c(-c2nonc2N)nc2cnccc21 ; test system: Cyclin-dependent kinase 2 (Homo sapiens, UniProt P24941).
6.77

* * *

TARGET: Rho-associated protein kinase 1 (Homo sapiens, UniProt Q13464)
Sequence (Q13464 whole entry): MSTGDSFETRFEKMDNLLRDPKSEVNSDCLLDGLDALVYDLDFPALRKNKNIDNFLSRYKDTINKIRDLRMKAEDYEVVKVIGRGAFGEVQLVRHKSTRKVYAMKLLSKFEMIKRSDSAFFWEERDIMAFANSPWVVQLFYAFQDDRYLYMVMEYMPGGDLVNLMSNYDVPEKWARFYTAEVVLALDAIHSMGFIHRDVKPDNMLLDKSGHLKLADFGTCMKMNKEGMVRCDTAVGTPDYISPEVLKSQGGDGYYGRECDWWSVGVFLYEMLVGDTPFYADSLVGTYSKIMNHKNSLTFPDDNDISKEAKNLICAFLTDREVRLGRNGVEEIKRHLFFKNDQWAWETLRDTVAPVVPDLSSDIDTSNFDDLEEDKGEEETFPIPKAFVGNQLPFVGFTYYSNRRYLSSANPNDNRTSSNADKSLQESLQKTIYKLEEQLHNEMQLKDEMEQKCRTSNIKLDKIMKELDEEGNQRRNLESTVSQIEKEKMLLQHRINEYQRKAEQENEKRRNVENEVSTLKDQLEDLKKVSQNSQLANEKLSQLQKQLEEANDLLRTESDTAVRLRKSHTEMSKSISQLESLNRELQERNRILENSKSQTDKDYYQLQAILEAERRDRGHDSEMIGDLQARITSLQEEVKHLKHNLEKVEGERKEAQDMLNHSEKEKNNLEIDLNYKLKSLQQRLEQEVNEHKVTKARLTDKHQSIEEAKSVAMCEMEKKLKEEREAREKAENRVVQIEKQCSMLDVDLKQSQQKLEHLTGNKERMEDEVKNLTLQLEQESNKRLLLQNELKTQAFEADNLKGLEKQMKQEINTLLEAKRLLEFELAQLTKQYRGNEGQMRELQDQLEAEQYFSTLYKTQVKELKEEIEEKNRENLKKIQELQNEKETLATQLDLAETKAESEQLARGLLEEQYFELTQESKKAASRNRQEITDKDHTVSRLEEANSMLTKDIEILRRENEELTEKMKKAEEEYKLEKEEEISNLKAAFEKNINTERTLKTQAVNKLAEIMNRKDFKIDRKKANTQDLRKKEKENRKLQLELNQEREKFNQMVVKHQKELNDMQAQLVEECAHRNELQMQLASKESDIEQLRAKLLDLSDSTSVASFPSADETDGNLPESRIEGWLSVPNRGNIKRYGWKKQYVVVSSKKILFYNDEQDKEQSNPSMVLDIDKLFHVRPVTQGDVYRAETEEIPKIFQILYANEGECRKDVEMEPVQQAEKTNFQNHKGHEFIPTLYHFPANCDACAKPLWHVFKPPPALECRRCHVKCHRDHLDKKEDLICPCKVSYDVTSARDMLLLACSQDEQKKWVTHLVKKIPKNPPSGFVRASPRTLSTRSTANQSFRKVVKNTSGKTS
TEST READOUT: IC50 (nM)
Write down the numeric answer in nM and omit the unit.

Look up IC50 of CCn1c(-c2nonc2N)nc2cncc(CNC3CCNCC3)c21 and report it.
100

* * *

TARGET: Ribosomal protein S6 kinase beta-1 (Homo sapiens, UniProt P23443)
Sequence (P23443 whole entry): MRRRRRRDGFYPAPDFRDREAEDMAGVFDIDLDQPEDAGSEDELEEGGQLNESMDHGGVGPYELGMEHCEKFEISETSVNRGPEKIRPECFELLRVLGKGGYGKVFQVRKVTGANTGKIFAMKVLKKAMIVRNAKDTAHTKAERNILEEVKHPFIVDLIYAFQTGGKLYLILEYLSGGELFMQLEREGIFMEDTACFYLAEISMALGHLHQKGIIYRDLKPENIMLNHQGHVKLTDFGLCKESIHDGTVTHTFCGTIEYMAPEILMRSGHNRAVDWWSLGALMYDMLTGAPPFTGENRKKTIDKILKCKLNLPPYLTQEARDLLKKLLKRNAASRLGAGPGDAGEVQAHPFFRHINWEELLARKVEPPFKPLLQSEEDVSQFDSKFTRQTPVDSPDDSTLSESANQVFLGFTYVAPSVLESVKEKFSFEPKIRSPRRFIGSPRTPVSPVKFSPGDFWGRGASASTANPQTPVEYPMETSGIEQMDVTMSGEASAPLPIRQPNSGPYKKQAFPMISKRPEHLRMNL
TEST READOUT: IC50 (nM)
Write down the numeric answer in nM and omit the unit.

Look up IC50 of CCn1c(-c2nonc2N)nc2cncc(CNC3CCNCC3)c21 and report it.
270
